// data source = patent US20080287398A1

target: canine TRPM8 (Canis lupus familiaris, UniProt Q1A7N1); construct: expressed in transfected cells; assay: In vitro canine TRPM8 functional assay (Ca2+-sensitive dye, FLIPR/FDSS, icilin activation); type: cell-based; conditions: HEK293 cells expressing canine TRPM8, icilin activation; eight-point dose-response; read-out: IC50
Sequence (Q1A7N1 1-1104): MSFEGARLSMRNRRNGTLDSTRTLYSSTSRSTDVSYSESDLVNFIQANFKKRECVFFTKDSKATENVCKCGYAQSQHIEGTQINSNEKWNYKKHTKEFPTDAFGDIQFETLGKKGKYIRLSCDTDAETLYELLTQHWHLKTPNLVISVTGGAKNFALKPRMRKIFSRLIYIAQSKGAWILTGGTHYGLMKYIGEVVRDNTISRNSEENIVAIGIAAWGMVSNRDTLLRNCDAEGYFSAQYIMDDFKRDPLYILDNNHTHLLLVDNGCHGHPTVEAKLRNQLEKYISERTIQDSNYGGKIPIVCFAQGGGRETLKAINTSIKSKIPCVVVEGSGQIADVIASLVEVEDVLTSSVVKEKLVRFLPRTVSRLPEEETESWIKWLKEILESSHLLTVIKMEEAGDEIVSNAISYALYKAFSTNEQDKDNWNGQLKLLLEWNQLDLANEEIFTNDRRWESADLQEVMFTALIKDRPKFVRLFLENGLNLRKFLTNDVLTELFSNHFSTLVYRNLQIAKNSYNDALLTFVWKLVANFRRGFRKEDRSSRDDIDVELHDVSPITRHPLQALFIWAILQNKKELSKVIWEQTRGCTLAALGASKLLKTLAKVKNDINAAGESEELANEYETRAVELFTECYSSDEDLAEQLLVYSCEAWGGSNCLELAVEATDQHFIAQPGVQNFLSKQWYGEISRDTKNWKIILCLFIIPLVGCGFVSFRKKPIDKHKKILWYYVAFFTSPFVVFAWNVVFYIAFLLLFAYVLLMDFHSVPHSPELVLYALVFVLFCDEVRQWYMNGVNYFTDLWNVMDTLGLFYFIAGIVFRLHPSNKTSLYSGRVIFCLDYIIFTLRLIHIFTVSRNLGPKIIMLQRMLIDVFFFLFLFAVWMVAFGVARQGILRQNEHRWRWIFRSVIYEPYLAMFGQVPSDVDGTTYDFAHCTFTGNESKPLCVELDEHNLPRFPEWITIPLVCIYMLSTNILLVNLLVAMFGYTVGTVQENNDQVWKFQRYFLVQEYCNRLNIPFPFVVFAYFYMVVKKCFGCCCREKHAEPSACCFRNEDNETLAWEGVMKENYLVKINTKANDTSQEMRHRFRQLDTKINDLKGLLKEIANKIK
Examples of compounds with documented IC50 follow.
MEASUREMENT_NAME: IC50 (nM)

> print(dat)
                                   compound  measurement.unit  number
1  CC(C)OP(=O)(OC(C)C)C(Cc1ccc(F)c(Cl)c1)c1sc2ccccc2c1Cl (centres unmarked) [Cpd 253]                nM      34
2  CCOP(=O)(OCC)C(Cc1ccc(OC(F)(F)F)cc1)c1sc2ccccc2c1Cl (centres unmarked) [Cpd 277]                nM     116
3  CCOP(=O)(OCC)C(Cc1ccc(C#N)cc1)c1sc2ccccc2c1Br (centres unmarked) [Cpd 312]                nM      89
4  CC(C)OP(=O)(OC(C)C)/C(=C/c1ccc(F)c(F)c1)c1cc2ccccc2s1 [Cpd 333]                nM     176
5  CC(=O)n1c(C(Cc2ccc(F)c(C(F)(F)F)c2)P(=O)(OC(C)C)OC(C)C)c(Br)c2ccccc21 (centres unmarked) [Cpd 331]                nM     152
6  CCOP(=O)(OCC)C(Cc1cc(F)cc(C(F)(F)F)c1)c1sc2ccccc2c1Cl (centres unmarked) [Cpd 278]                nM     159
7  CCOP(=O)(OCC)C(Cc1ccc(OC)cc1)c1sc2ccccc2c1Br (centres unmarked) [Cpd 321]                nM      43
8  CC(C)OP(=O)(OC(C)C)C(Cc1ccc(C(F)(F)F)cc1F)c1sc2ccccc2c1Cl (centres unmarked) [Cpd 191]                nM     125

----------
biological target: canine TRPM8 (Canis lupus familiaris, UniProt Q1A7N1); construct: expressed in transfected cells; test: In vitro canine TRPM8 functional assay (Ca2+-sensitive dye, FLIPR/FDSS, icilin activation); assay type: cell-based; conditions: 1 μM compound; HEK293 cells expressing canine TRPM8, icilin activation
MEASUREMENT_NAME: % I (1 μM) (%)

> print(dat)
                                   molecule                                       tgt  measurement.name  number
1  CC(C)OP(=O)(OC(C)C)C(Cc1cccc(C(F)(F)F)c1)c1cc2ccccc2s1 (centres unmarked)  canine TRPM8 (Canis lupus familiaris, UniProt Q1A7N1)        % I (1 μM)      99
2  CCOP(=O)(OCC)C(Cc1cc(F)c(Cl)cc1Cl)c1sc2ccccc2c1C (centres unmarked)  canine TRPM8 (Canis lupus familiaris, UniProt Q1A7N1)        % I (1 μM)     100
3  CCOP(=O)(OCC)C(Cc1ccc2ccccc2c1)c1cc2ccccc2s1 (centres unmarked)  canine TRPM8 (Canis lupus familiaris, UniProt Q1A7N1)        % I (1 μM)      84
4  Cc1c(C(Cc2ccc(F)c(F)c2)P(=O)(OC(C)C)OC(C)C)oc2cccc(F)c12 (centres unmarked)  canine TRPM8 (Canis lupus familiaris, UniProt Q1A7N1)        % I (1 μM)     103
5  CCOP(=O)(CC(C)C)C(Cc1ccc(F)c(F)c1)c1sc2ccccc2c1C (centres unmarked) [Cpd 36]  canine TRPM8 (Canis lupus familiaris, UniProt Q1A7N1)        % I (1 μM)     100
